assay: recombinant barcode read abundance after kanamycin selection (control-corrected) (log10(CPM+1)); higher = more efficient recombination; sequences stand for … in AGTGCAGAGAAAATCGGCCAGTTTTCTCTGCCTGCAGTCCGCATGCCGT…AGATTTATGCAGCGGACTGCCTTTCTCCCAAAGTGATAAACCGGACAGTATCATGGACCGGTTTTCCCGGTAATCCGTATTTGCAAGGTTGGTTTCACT; site = the 11-nt target;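 further: IS621 recombinase and bridge RNA in Escherichia coli cells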
Measurement Type: recombinant barcode read abundance (log10)

GET /values?readout=recombinant barcode read abundance (log10)&item= CGTACCTCTTGGGTTCTAACCTGTTGCTC (site CGTACCTCTTA)
0.0752

GET /values?readout=recombinant barcode read abundance (log10)&item= CAAGAGTCTTGGGTTCTAACCTGTTGCTT (site CGAGAGACTAA)
0.178

GET /values?readout=recombinant barcode read abundance (log10)&item= GTCGCGGCTTGGGTTCTAACCTGTTGCCT (site GTCGCGTCTAG)
0.324

GET /values?readout=recombinant barcode read abundance (log10)&item= TCCTGGCCTTGGGTTCTAACCTGTTGCCT (site TCCTGGCCTAG)
0.117

GET /values?readout=recombinant barcode read abundance (log10)&item= GGAAAGACTTGGGTTCTAACCTGTTGCCT (site GGCAAGACTAG)
0.18

GET /values?readout=recombinant barcode read abundance (log10)&item= ACATTAGCTTGGGTTCTAACCTGTTGCTG (site ACAGTAGCTCA)
0.18

GET /values?readout=recombinant barcode read abundance (log10)&item= GGAGGTCCTTGGGTTCTAACCTGTTGCCG (site ACTCAGACTGT)
0.161

Here is the next item to consider.
GET /values?readout=recombinant barcode read abundance (log10)&item= TGTAAGACTTGGGTTCTAACCTGTTGCTG (site TGTAAGGCTAA)
0.015
